- System: DeltatarO mutant
- METHOD: S. aureus survival, RN4220 and DeltatarO strains – OD600, teichoic acid synthesis inhibitors, primary screen (AID 463173)
- TEST CONTEXT: S. aureus RN4220 wild type/DeltatarO growth, OD600, 18 h, screened at 18.75 µg/mL (by protocol)
About 4,300 (8.3%) of roughly 52,000 compounds were called active. Cut-off read from the data, not from the text of the source: active = survival mostly below about 52% (no sharp cut-off); inactive = mostly above about 56%. Only a selection was taken, and actives are over-represented in it overall.
Permitted responses: active, inactive

Lab log entry: Cc1cccc(NC(=O)CSc2nc(C)cc(C)c2C(=O)Nc2ccc(Cl)cc2)c1 — outcome as called in the assay? inactive

Lab log entry: Cc1cc(C)c(C(=O)Nc2ccccc2)c(SCC(=O)Nc2ccc(Br)cc2C)n1 — outcome as called in the assay? active

Lab log entry: Cc1ccc(NC(=O)CSc2nc(C)cc(C)c2C(=O)Nc2cccc(C)c2)cc1 — outcome as called in the assay? inactive

Lab log entry: COc1ccccc1NC(=O)c1c(C)cc(C)nc1SCC(=O)c1ccc(Cl)cc1 — outcome as called in the assay? inactive

Lab log entry: CCc1ccc(NC(=O)N2CC=C(c3c[nH]c4ccccc34)CC2)cc1 — outcome as called in the assay? active

Lab log entry: Cc1ccc(N2CCN(S(=O)(=O)c3nnc(NC(=O)c4ccccc4)s3)CC2)cc1 — outcome as called in the assay? inactive

Lab log entry: COc1ccc(C2c3c(-c4ccccc4O)n[nH]c3C(=O)N2CCc2ccccc2)cc1 (stereo unspecified) — outcome as called in the assay? active

Lab log entry: Cc1cc(C)n(CCCO)c(=O)c1C#N — outcome as called in the assay? inactive

Lab log entry: CCCSCCCNC(=O)c1ccc2c(c1)sc1nc(-c3ccc(OCC)cc3)cn12 — outcome as called in the assay? inactive

Lab log entry: O=C(CSc1nnc(-c2ccccc2)c(-c2ccccc2)n1)NC1CCCC1 — outcome as called in the assay? inactive

Lab log entry: CCc1ccc(Nc2nc(N)nc(CSc3nc4ccccc4s3)n2)cc1 — outcome as called in the assay? active

Lab log entry: Cc1nc(S(=O)(=O)N2CCN(c3ccccc3F)CC2)cn1C — outcome as called in the assay? inactive

Lab log entry: Cn1c(=O)c2c(nc(NCc3ccccc3)n2Cc2ccccc2)n(C)c1=O — outcome as called in the assay? active

Lab log entry: COc1ccc(N(C)C(=O)Cn2cc(S(=O)(=O)N3CCN(c4ccccc4F)CC3)c3ccccc3c2=O)c(OC)c1 — outcome as called in the assay? inactive

Lab log entry: C/C=N/NC(=O)CSc1nc2ccccc2s1 — outcome as called in the assay? inactive

Lab log entry: COC(=O)c1ccc(NC(=O)CSc2nc(C)cc(C)c2C(=O)Nc2ccccc2)cc1 — outcome as called in the assay? inactive

Lab log entry: CCOC(=O)c1c(C)[nH]c(CCC(=O)NCc2cc(Br)ccc2OC)c1C — outcome as called in the assay? inactive

Lab log entry: COc1ccc(CNc2nc3c(c(=O)n(C)c(=O)n3C)n2Cc2ccccc2Cl)cc1 — outcome as called in the assay? inactive

Lab log entry: CCc1ccc2[nH]c(=O)c(CN(CCCN3CCOCC3)C(=S)NC)cc2c1 — outcome as called in the assay? inactive

Lab log entry: Cc1cc2c(cc1NS(=O)(=O)c1ccc(NC(=O)CC(C)C)cc1)n(C)c(=O)c(=O)n2C — outcome as called in the assay? inactive

Lab log entry: Cc1ccc2nc(N(Cc3cccnc3)C(=O)C3COc4ccccc4O3)sc2c1 (stereo unspecified) — outcome as called in the assay? inactive

Lab log entry: CCCCNc1nc2c(S(=O)(=O)c3ccc(Br)cc3)nnn2c2ccsc12 — outcome as called in the assay? inactive

Lab log entry: CCc1cccc(C)c1NC(=O)CSc1nc(C)cc(C)c1C(=O)Nc1ccccc1 — outcome as called in the assay? inactive

Lab log entry: Cc1ccccc1N1CCN(S(=O)(=O)c2nnc(NC(=O)c3ccc(C(C)C)cc3)s2)CC1 — outcome as called in the assay? active

Lab log entry: COc1ccc(Cl)c(Cn2c(NCCN)nc3c2c(=O)n(C)c(=O)n3C)c1 — outcome as called in the assay? active

Lab log entry: COc1ccc(CCN(Cc2cc3cc(C)ccc3n3nnnc23)C(=O)N(C)C)cc1OC — outcome as called in the assay? inactive

Lab log entry: Cc1ccccc1N1CCN(S(=O)(=O)c2nnc(NC(=O)c3ccccc3)s2)CC1 — outcome as called in the assay? active

Lab log entry: Cc1cccc(NC(=O)N2CC=C(c3c[nH]c4ccccc34)CC2)c1C — outcome as called in the assay? inactive

Lab log entry: Cc1ccc(C)c(N2CCN(S(=O)(=O)c3cn(C)c(C)n3)CC2)c1 — outcome as called in the assay? inactive

Lab log entry: COc1ccc(C(=O)CSc2nc(C)cc(C)c2C(=O)Nc2ccccc2C)cc1 — outcome as called in the assay? inactive

Lab log entry: CC(OC(=O)CN1C(=O)COc2ccccc21)C(=O)NCc1cccs1 (stereo unspecified) — outcome as called in the assay? inactive

Lab log entry: Cc1cc(C)cc(NC(=O)CCCn2nc(C)c3c(C)n(-c4ccccc4)nc3c2=O)c1 — outcome as called in the assay? inactive

Lab log entry: Cc1ccc(S(=O)(=O)NC(C)(C)CN2CCCCC2)cc1 — outcome as called in the assay? inactive

Lab log entry: COc1ccc(CCN2C(=O)c3[nH]nc(-c4ccccc4O)c3C2c2ccc(OC)cc2)cc1 (stereo unspecified) — outcome as called in the assay? active

Lab log entry: Cc1ccccc1NS(=O)(=O)c1nnc(NC(=O)c2ccc(Cl)cc2)s1 — outcome as called in the assay? active

Lab log entry: Cc1cccc(N2CCN(S(=O)(=O)c3cn(C)c(C)n3)CC2)c1C — outcome as called in the assay? active

Lab log entry: CCc1cccc(NS(=O)(=O)c2ccc3c(c2)n(C)c(=O)c(=O)n3C)c1 — outcome as called in the assay? inactive

Lab log entry: COc1ccc(CCN2C(=O)c3[nH]nc(-c4ccccc4O)c3C2c2cccc(OC)c2)cc1 (stereo unspecified) — outcome as called in the assay? inactive

Lab log entry: Cc1cccc(NC(=O)c2c(C)cc(C)nc2SCC(=O)c2ccccc2)c1 — outcome as called in the assay? active

Lab log entry: CCn1cc(C(=O)N2CCN(c3ccc(C)cc3)C(C)C2)c(=O)c2cc(S(=O)(=O)N3CCCC3)ccc21 (stereo unspecified) — outcome as called in the assay? inactive

Lab log entry: Cc1ccccc1NS(=O)(=O)c1nnc(NC(=O)c2ccccc2C)s1 — outcome as called in the assay? inactive
